target: E340Q mutant bovine olfactory CNG channel (Bos taurus, UniProt Q03041, E340Q); format: biochemical; conditions: read-out: K 1/2, cGMP, −80 mV
outcome_measure: EC50 (µM)

                                   molecule  outcome_measure  assay_result
0  Nc1nc2c(ncn2[C@@H]2O[C@@H]3COP(=O)(O)O[C@H]3[C@H]2O)c(=O)[nH]1 [cGMP]             EC50           5.6

---

Molecular target: wild-type bovine olfactory CNG channel (α3 subunit) (Bos taurus)
Sequence (Q03041 1-663): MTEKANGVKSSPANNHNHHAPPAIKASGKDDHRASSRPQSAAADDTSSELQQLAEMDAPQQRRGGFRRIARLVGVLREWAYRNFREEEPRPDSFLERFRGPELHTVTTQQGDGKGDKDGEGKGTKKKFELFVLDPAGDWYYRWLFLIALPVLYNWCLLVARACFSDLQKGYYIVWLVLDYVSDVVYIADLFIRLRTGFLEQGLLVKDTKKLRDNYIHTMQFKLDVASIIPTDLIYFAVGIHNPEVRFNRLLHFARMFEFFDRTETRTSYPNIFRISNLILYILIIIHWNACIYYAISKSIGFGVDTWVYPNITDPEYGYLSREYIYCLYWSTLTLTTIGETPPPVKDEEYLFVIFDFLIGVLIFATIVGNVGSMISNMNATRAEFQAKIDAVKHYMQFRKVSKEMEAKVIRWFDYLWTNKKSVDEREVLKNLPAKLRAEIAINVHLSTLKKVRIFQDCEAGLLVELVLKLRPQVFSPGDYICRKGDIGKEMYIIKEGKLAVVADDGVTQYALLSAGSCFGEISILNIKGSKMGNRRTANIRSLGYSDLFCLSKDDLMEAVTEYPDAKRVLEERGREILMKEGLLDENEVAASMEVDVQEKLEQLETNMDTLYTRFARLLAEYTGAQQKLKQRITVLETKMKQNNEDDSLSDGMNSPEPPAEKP
Assay: Blockage of macroscopic current by external Ca2+ or Mg2+, outside-out patches
Assay type: biochemical
Details: external Ca2+, +80 mV, mean ± SD
outcome_measure: Ki (µM)

>>> print(df.to_string())
         compound  outcome_measure  result_units  assay_result
0  [Ca+2] [Ca^2+]               Ki            µM           383

---

Target: wild-type bovine olfactory CNG channel (α3 subunit) (Bos taurus)
Sequence (Q03041 1-663): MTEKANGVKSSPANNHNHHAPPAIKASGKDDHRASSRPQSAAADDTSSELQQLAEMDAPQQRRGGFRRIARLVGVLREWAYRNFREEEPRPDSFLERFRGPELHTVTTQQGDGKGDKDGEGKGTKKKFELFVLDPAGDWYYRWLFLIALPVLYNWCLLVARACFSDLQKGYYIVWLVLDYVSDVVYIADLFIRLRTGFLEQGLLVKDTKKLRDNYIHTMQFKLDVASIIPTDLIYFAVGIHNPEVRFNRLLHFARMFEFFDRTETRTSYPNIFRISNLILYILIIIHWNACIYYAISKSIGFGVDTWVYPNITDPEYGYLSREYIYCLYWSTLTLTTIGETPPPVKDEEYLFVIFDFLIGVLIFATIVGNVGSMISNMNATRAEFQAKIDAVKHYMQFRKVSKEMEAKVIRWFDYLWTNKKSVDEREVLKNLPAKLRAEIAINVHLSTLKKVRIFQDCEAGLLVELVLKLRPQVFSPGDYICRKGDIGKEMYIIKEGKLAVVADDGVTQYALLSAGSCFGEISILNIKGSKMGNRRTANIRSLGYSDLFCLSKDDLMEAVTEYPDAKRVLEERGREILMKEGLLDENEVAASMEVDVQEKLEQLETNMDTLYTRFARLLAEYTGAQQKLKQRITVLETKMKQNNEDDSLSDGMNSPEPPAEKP
Type: biochemical
Details: read-out: K 1/2, cGMP, −80 mV
pEC50: −log10 of the molar value.
outcome_measure: pEC50

>>> df
                                   molecule  assay_result
0  Nc1nc2c(ncn2[C@@H]2O[C@@H]3COP(=O)(O)O[C@H]3[C@H]2O)c(=O)[nH]1          5.60

---

target: E340N^‡ mutant bovine olfactory CNG channel (Bos taurus, UniProt Q03041, E340Q); assay: Blockage of macroscopic current by external Ca2+ or Mg2+, outside-out patches; assay type: biochemical; settings: external Mg2+, −80 mV, one experiment
pKi: −log10 of the molar value.
outcome_measure: pKi

In [3]: df
Out[3]:
   molecule  assay_result
0    [Mg+2]          2.47

---

molecular target: E340N^‡ mutant bovine olfactory CNG channel (Bos taurus, UniProt Q03041, E340Q); assay: Blockage of macroscopic current by external Ca2+ or Mg2+, outside-out patches; format: biochemical; conditions: external Ca2+, +80 mV, mean ± SD
pKi: −log10 of the molar value.
outcome_measure: pKi

>>> print(df.to_string())
   molecule  outcome_measure  assay_result
0    [Ca+2]              pKi          1.72

---

Target: E340N mutant bovine olfactory CNG channel (Bos taurus, UniProt Q03041, E340N)
Sequence (Q03041 1-663 E340N): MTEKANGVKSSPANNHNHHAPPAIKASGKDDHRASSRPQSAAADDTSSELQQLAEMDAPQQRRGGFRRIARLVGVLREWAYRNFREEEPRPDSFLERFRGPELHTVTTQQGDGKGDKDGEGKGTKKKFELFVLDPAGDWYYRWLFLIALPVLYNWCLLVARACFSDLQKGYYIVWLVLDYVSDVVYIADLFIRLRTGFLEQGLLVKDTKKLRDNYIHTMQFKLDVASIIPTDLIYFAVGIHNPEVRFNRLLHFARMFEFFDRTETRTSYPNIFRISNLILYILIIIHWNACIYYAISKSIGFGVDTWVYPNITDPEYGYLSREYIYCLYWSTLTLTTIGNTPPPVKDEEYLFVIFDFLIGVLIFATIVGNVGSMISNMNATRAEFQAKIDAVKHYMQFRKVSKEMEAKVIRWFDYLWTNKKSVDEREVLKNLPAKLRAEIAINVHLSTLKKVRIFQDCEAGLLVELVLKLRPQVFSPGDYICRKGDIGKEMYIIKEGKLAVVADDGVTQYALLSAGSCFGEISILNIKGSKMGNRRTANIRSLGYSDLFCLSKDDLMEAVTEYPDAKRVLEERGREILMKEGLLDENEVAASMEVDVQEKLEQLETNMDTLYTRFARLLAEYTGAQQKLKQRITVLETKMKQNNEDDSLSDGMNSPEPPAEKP
Test: Blockage of macroscopic current by external Ca2+ or Mg2+, outside-out patches
Assay type: biochemical
Settings: external Mg2+, +80 mV, mean ± SD
outcome_measure: Ki (mM)

>>> print(df.to_string())
   molecule  result_units  assay_result
0    [Mg+2]            mM            50

---

molecular target: wild-type bovine olfactory CNG channel (α3 subunit) (Bos taurus); assay: Blockage of macroscopic current by external Ca2+ or Mg2+, outside-out patches; type: biochemical; settings: external Ca2+, −80 mV, mean ± SD
outcome_measure: Ki (µM)

In [3]: df
Out[3]:
         molecule                               measured_on  outcome_measure  assay_result
0  [Ca+2] [Ca^2+]  wild-type bovine olfactory CNG channel (α3 subunit) (Bos taurus)               Ki            47

---

target: E340G mutant bovine olfactory CNG channel (Bos taurus, UniProt Q03041, E340G); assay type: biochemical; conditions: read-out: K 1/2,cG, −80 mV, single patch, Fig. 1 fit
pEC50: −log10 of the molar value.
outcome_measure: pEC50

>>> df
                                   compound                               measured_on  assay_result
0  Nc1nc2c(ncn2[C@@H]2O[C@@H]3COP(=O)(O)O[C@H]3[C@H]2O)c(=O)[nH]1 [cGMP]  E340G mutant bovine olfactory CNG channel (Bos taurus, UniProt Q03041, E340G)          4.73

---

Target: E340G mutant bovine olfactory CNG channel (Bos taurus, UniProt Q03041, E340G)
Sequence (Q03041 1-663 E340G): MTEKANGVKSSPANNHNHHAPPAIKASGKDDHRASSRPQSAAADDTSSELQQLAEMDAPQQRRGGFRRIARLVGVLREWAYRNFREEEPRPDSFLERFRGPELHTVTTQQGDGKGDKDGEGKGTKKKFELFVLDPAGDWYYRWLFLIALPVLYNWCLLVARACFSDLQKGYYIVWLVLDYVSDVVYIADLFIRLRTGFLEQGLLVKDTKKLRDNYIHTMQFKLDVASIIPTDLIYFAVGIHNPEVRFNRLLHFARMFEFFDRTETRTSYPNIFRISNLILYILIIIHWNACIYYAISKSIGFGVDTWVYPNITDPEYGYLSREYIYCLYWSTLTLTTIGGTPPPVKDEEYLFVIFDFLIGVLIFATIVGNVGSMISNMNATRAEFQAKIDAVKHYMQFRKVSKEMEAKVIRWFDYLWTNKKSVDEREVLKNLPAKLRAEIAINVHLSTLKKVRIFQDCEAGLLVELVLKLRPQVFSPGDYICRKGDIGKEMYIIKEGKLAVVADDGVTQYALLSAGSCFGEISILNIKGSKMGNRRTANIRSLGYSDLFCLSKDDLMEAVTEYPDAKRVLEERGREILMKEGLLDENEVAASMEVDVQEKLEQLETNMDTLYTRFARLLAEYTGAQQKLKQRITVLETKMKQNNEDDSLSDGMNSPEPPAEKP
Experiment: Blockage of macroscopic current by internal Ca2+, inside-out patches
Type: biochemical
Details: read-out: K i for internal Ca2+ blockage, +80 mV, 1 mM cGMP, average
outcome_measure: Ki (µM)

>>> df
   molecule  assay_result
0    [Ca+2]          1500

meta.source: paper PMC2233693
